Here the recorded IC50 is given for each entry.
- tested.system: Avi-KRAS G12D (1-169) GppNHp/RAF1 RBD-3xFLAG (52-151) (Homo sapiens, UniProt P01116, G12D)
- Construct: Avi-KRAS G12D (1-169)
- Sequence (P01116 1-169 isoform P01116-2 G12D): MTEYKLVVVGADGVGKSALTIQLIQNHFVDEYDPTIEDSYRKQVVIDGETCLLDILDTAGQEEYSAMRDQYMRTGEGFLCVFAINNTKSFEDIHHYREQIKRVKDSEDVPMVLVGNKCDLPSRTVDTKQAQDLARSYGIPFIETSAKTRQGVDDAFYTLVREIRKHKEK
- protocol.description: Raf1-KRAS G12D-GppNHP disruption HTRF assay (Biological Example 1)
- Assay type: binding
- condition.context: KRAS G12D, GppNHp-loaded; class symbols

compound="CCN(c1nc(OC[C@@]23CCCN2C[C@H](F)C3)nc2c(F)c(-c3ccc(F)c4sc(N)c(C#N)c34)c(C(F)(F)F)cc12)[C@H]1C[C@@H](C)N(C(=O)C2COC2)C1 (atropisomer, axis not shown)" assay_value="< 100 nM"

Looking for the measured IC50 of CCN1CC[C@@H](N(CC)c2nc(OC[C@@]34CCCN3C[C@H](F)C4)nc3c(F)c(-c4ccc(F)c5sc(N)c(C#N)c45)c(C(F)(F)F)cc23)C1=O (atropisomer, axis not shown) , can you help? 100 to 1000 nM

Give the measured IC50 of Cc1c(C(=O)N(C)C)nn2c1CN(c1nc(OC[C@@]34CCCN3C[C@H](F)C4)nc3c(F)c(-c4ccc(F)c5sc(N)c(C#N)c45)c(C(F)(F)F)cc13)CC2 (atropisomer, axis not shown; (aS)) . < 100 nM

What value of measured IC50 is listed for CCN(c1nc(OC[C@@]23CCCN2C[C@H](F)C3)nc2c(F)c(-c3ccc(F)c4sc(N)c(C#N)c34)c(C(F)(F)F)cc12)[C@H]1CCN(C(=O)[C@@H](C)OC)[C@@H]1C (atropisomer, axis not shown) ? < 100 nM

###

- tested.system: Avi-KRAS WT (1-169) GppNHp/RAF1 RBD-3xFLAG (52-151) (Homo sapiens, UniProt P01116)
- Construct: Avi-KRAS WT (1-169)
- Sequence (P01116 1-169 isoform P01116-2): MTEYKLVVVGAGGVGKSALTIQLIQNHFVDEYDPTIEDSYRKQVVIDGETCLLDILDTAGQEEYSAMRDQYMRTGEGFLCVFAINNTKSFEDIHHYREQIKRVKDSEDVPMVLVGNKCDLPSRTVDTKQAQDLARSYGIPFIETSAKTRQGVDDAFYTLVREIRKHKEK
- protocol.description: Raf1-KRAS WT-GppNHP disruption HTRF assay (Biological Example 1)
- Format: binding
- condition.context: KRAS WT, GppNHp-loaded; Table 11
pIC50: −log10 of the molar value.
Recorded pIC50, one value per entry.

compound=CC(C)(O)[C@H]1CCN1c1nc(OC[C@@]23CCCN2C[C@H](F)C3)nc2c(F)c(-c3ccc(F)c4sc(N)c(C#N)c34)c(C(F)(F)F)cc12 assay_value="6.00 to 7.00"
compound=CC(=O)N1C[C@@H](F)[C@@H](N(C)c2nc(OC[C@@]34CCCN3C[C@H](F)C4)nc3c(F)c(-c4ccc(F)c5sc(N)c(C#N)c45)c(C(F)(F)F)cc23)C1 assay_value="6.00 to 7.00"
compound="N#Cc1c(N)sc2c(F)ccc(-c3c(C(F)(F)F)cc4c(N5CC6CC(C5)O6)nc(OC[C@@]56CCCN5C[C@H](F)C6)nc4c3F)c12 (single isomer, unassigned) [Compound 276]" assay_value="5.00 to 6.00"
compound=C[C@H]1CN(c2nc(OC[C@@]34CCCN3C[C@H](F)C4)nc3c(F)c(-c4ccc(F)c5sc(N)c(C#N)c45)c(C(F)(F)F)cc23)CCO1 assay_value="6.00 to 7.00"
compound="CN(c1nc(OC[C@@]23CCCN2C[C@H](F)C3)nc2c(F)c(-c3ccc(F)c4sc(N)c(C#N)c34)c(C(F)(F)F)cc12)[C@H]1CCS(=O)(=O)C1 (single isomer, unassigned) [Compound 220]" assay_value="< 5.00"

Tell me the measured pIC50 of "N#Cc1c(N)sc2c(F)ccc(-c3c(C(F)(F)F)cc4c(N5CCS(=O)(=O)CC5)nc(OC[C@@]56CCCN5C[C@H](F)C6)nc4c3F)c12" , please. 6.00 to 7.00

I'd like to know its pIC50. The compound in question is "C[C@@H]1CN(c2nc(OC[C@@]34CCCN3C[C@H](F)C4)nc3c(F)c(-c4ccc(F)c5sc(N)c(C#N)c45)c(C(F)(F)F)cc23)C[C@@H](C)O1" 6.00 to 7.00
